system name: T1, human TSLP (human, UniProt Q969D9 29-159)
T1 construct: also called hTSLP; rhTSLP
measurement protocol: yeast surface display, affinity maturation library

binder	binding result
Ab clone 38.026 (yeast surface display) (scFv, V domains shown, YSD clone; also called BDG38_026) VH: QMQLVESGGGVVQPGRSLRLSCAASGFAFRTYGMHWVRQAPGKGLEWVAVIWYDGSATHYADSVKGRFTITRDNSKNTLNLQMNSLRAEDTAVYYCVRAPQWYLSAEAFDLWGQGTMVTVSS VL: SYVLTQPPSVSVAPGQTATITCGGNLIGSKLVHWYQQKPGQAPVLVVYDDSDRPSRIPERFSGSNIGNTATLTISRVEAGDEADYYCQVWDHSSDHVVFGGGTKLTVL	binds
Ab clone 38.018 (yeast surface display) (scFv, V domains shown, YSD clone; also called BDG38_018) VH: QMQLVESGGGVVQPGRSLRLSCAASGFAFRTYGMHWVRQAPGKGLEWVAVIWDDGSNTHYADSVKGRFTITRDNSKNTLNLQMNSLRAEDTAVYYCARAPQWYLSAEAFDLWGQGTMVTVSS VL: SYVLTQPPSVSVAPGQTARITCGGNLIGSKLVHWYQQKPGQAPVLVVYDDSDRPSRIPERFSGSNSGNTATLTISRVEAGDEADYYCQVWDHSSDHVVFGGGTKLTVL	binds
Ab clone 38.014 (yeast surface display) (scFv, V domains shown, YSD clone; also called BDG38_014) VH: QMQLVESGGGVVQPGRSLRLSCAASGFAFRTYGMHWVRQAPGKGLEWVAVIWYDGSNTHYADSVKGRFTITRDNSKNTLNLQMNSLRAEDTAVYYCVRAPQWYLSAEAFDLWGQGTMVTVSS VL: SYVLTQPPSVSVAPGQTARITCGGNLIGAKLVHWYQQKPGQAPVLVVYDDSDRPSRIPERFSGSNSGNTATLTISRVEAGDEADYYCQVWDHSSDHVVFGGGTKLTVL	binds
